Hello, the source for this data is patent US20170182015A1, in case you need it.

test system: VC8-B2 cells (complemented for functional BRCA2); experiment: Growth inhibition (proliferation) assay in BRCA2 complemented cells; type: cell-based, Chinese hamster; conditions: Cricetulus griseus; VC8-B2 cells expressing functional BRCA2; 4 hr treatment, 120 hr incubation, resazurin
Entries and their IC50
Quick note: give the figure in nM, leave out the unit.

Ask | Which value of IC50 has been reported for CN[C@H]1CN(c2ccc3c(=O)c(C(=O)O)cn(-c4nccs4)c3n2)C[C@@H]1OC [SNS-595] in the records?
Reply | 720

Moving on to the next molecule.
Ask | Which value of IC50 has been reported for COc1cccc2c1C(=O)c1c(O)c3c(c(O)c1C2=O)C[C@@](O)(C(=O)CO)C[C@@H]3O[C@H]1C[C@H](N)[C@H](O)[C@H](C)O1 [doxorubicin] in the records?
Reply | 190
